- Tested on: Fibroblast
- Method: Multiplex assay against human fibroblast
- Assay type: toxicity, cell-based
- Recorded Conditions: 24 h, 10 µM, compound concentration 10 uM, replicate 1

{"columns": ["Compound", "Population Mitotic Cells (%)"],
 "data": [
  ["CN1CCCC(n2nc(Cc3ccc(Cl)cc3)c3ccccc3c2=O)CC1.Cl (configuration not stated) [AZELASTINE HYDROCHLORIDE]", 15],
  ["Cc1[nH]c(/C=C2\\C(=O)Nc3ccc(S(=O)(=O)N(C)c4cccc(Cl)c4)cc32)c(C)c1C(=O)N1CCN(C)CC1", 22],
  ["Cc1nc(-c2ccc(-c3ccc(C(=O)N4CCc5cc6c(cc54)C4(CCN(C)CC4)CO6)cc3)c(C)c2)no1 [SB-224289]", 21],
  ["C[C@@H](NCCCc1cccc(C(F)(F)F)c1)c1cccc2ccccc12.Cl [CINACALCET HYDROCHLORIDE]", 34],
  ["CN1CCC[C@@H]1CCO[C@](C)(c1ccccc1)c1ccc(Cl)cc1.O=C(O)/C=C/C(=O)O [CLEMASTINE FUMARATE]", 21],
  ["CNc1nc(NCc2ccc(NS(C)(=O)=O)cc2Cl)cc(-c2ccccn2)n1", 35],
  ["Cl.N#Cc1ccc2[nH]cc(CCCCN3CCN(c4ccc5oc(C(N)=O)cc5c4)CC3)c2c1 [VILAZODONE HYDROCHLORIDE]", 33],
  ["O=C1NCN(c2ccccc2)C12CCN(CCCOc1ccc(F)cc1)CC2 [SPIRAMIDE]", 29],
  ["Cc1nc(Nc2n[nH]c3c2CN(C(=O)N[C@H](CN(C)C)c2ccccc2)C3(C)C)c2sccc2n1 [PF-03758309]", 32],
  ["Cc1cc(C)cc(-c2cnc3cc(Cl)c(-c4cccc(O)c4)cc3c2OCCCN)c1", 61],
  ["CN1CCN(CCOc2cc(OC3CCOCC3)c3c(Nc4c(Cl)ccc5c4OCO5)ncnc3c2)CC1 [SARACATINIB]", 50],
  ["Cc1c(-c2ccc(O)cc2)n(Cc2ccc(OCCN3CCCCCC3)cc2)c2ccc(O)cc12 [BAZEDOXIFENE]", 37],
  ["CCN(CC)CCCCNc1ncc2cc(-c3cc(OC)cc(OC)c3)c(NC(=O)NC(C)(C)C)nc2n1 [PD-173074]", 48],
  ["CC(C)(O)CNc1ncc(-c2ccnc(Nc3ccnc(Cl)c3)n2)c(CC2CC2)n1", 36],
  ["COc1ncc(-c2ccc3nccc(-c4ccnnc4)c3c2)cc1NS(=O)(=O)c1ccc(F)cc1F [OMIPALISIB]", 33],
  ["c1cn2cc(-c3ccc4cn[nH]c4c3)nc(Nc3ccc(N4CCOCC4)cc3)c2n1 [ENTOSPLETINIB]", 51],
  ["Cc1nc(-c2cn3c(n2)-c2ccc(-c4cnn(C(C)(C)C(N)=O)c4)cc2OCC3)n(C(C)C)n1 [TASELISIB]", 26]
]}

* * *

- Tested on: U2OS
- Method: Incucyte cell viability with U2OS; note: filed as whole numbers so only -1 and 0 and 1 occur
- Format: toxicity, cell-based
- Recorded Conditions: human, 12 h, 10 µM, compound concentration 10 uM, replicate number 1, timepoint 12 hours
Growth Rate values, listed per item

{"columns": ["Molecule", "Growth Rate"],
 "data": [
  ["Cc1cc(F)c(C(=O)Nc2cccc(-c3nncn3C(C)C)n2)cc1-n1cnc(C2CC2)c1", 0],
  ["CNCc1ccccc1-c1csc([C@H](C)Nc2nc(C)nc3cc(OC)c(OC)cc23)c1", 0],
  ["CCOCCn1cc(C(=O)Nc2ccc(-n3nc(-c4cccnc4)cc3C(F)(F)F)cn2)ccc1=O", 0],
  ["Cc1nc(Nc2n[nH]c3c2CN(C(=O)N[C@H](CN(C)C)c2ccccc2)C3(C)C)c2sccc2n1", 0],
  ["O=C(O)C[C@H]1CCc2c1[nH]c1ccc(OCc3ccc(C4CCCC4)c(C(F)(F)F)c3)cc21", 0],
  ["COc1cc(-c2cn([C@H]3CCc4c(F)cccc4N(CC(F)(F)F)C3=O)nn2)ccc1-n1cnc(C)c1", 0],
  ["Cn1c(-c2csc(C3CCN(CC4=NC5N=CC=CC5N4)CC3)n2)nc2ccccc21 (configuration not stated)", 1],
  ["NC(=O)Nc1cc(-c2cccc(F)c2)sc1C(=O)N[C@H]1CCCNC1", 0],
  ["CCN(CC)CCCCNc1ncc2cc(-c3cc(OC)cc(OC)c3)c(NC(=O)NC(C)(C)C)nc2n1", 0],
  ["CNC(=NCCSCc1csc(N=C(N)N)n1)NC#N", 1],
  ["Cn1cc(C2=C(c3cn(C4CCN(Cc5ccccn5)CC4)c4ccccc34)C(=O)NC2=O)c2ccccc21", 0],
  ["Br.Br.N=C(N)SCCc1c[nH]cn1", 1],
  ["CN1C(=O)[C@@H](N2CCc3cn(Cc4ccccc4)nc3C2=O)COc2ccccc21", 1],
  ["Cn1cnc2c(F)c(Nc3ccc(Br)cc3Cl)c(C(=O)NOCCO)cc21", 0],
  ["N#CC(Cc1ccc(O)cc1)c1ccc(O)cc1 (configuration not stated)", 1],
  ["CN([C@@H]1CCc2c(CC(=O)O)c3ccccc3n2C1)S(=O)(=O)c1ccc(F)cc1", 1],
  ["O=C(Nc1cnc(Oc2ccc(F)cc2)nc1)N1CCc2ncccc2[C@@H]1c1ccc(F)cc1", 1]
]}
